# SYSTEM UNDER TEST: cis pT231-tau (P-tau peptide, pure cis or cis-locked)
# ASSAY NAME: Biacore assay of binding affinity of humanized cis mAb variants
pKd: −log10 of the molar value.
Cut-off 8 on pKd, inclusive. At or above means 1 (yes); below means 0 (no).

Worked examples follow.
MOLECULE	ASSIGNED CLASS
HT12: humanized cis-pThr231-tau mAb; heavy chain variable domain SEQ ID NO: 28, light chain variable domain SEQ ID NO: 19 (antibody, V domains shown) VH: QVQLVQSGAEVKKPGASVKVSCKASGYTFTSYWIHWVRQRPGQGLEWIGVIDPSDSYTRYNQKFKGRVTITRDTSASTAYMELSSLRSEDTAVYYCTTWEVDYWGQGTLVTVSS VL: DVVMTQSPLSLPVTLGQPASISCRSSQSLVHSDGNTYLHWYLQKPGQSPQLLIYKVSNRFSGVPDRFSGSGSGTDFTLKISRVEAEDVGVYYCSQSTHVPWTFGGGTKVEIK	1 (yes)
HT3: humanized cis-pThr231-tau mAb; heavy chain variable domain SEQ ID NO: 27, light chain variable domain SEQ ID NO: 16 (antibody, V domains shown) VH: QVQLVQSGAEVKKPGASVKVSCKASGYTFTSYWIHWVRQRPGQGLEWIGVIDPSDSYTRYNQKFKGRVTLTVDTSASTAYMELSSLRSEDTAVYYCTTWEVDYWGQGTLVTVSS VL: DVVMTQSPLSLPVTLGQPASISCRSSQSLVHSDGNTYLHWYLQKPGQSPQLLIYKVSNRFSGVPDRFSGSGSGTDFTLKISRVEAEDVGVYFCSQSTHVPWTFGGGTKVEIK	1 (yes)
HT15: humanized cis-pThr231-tau mAb; heavy chain variable domain SEQ ID NO: 26, light chain variable domain SEQ ID NO: 17 (antibody, V domains shown) VH: QVQLVQSGAEVKKPGASVKMSCKASGYTFTSYWIHWVKQRPGQGLEWIGVIDPSDSYTRYNQKFKGRATLTVDTSASTAYMELSSLRSEDTAVYYCTTWEVDYWGQGTLVTVSS VL: DVVMTQSPLSLPVTLGQPASISCRSSQSLVHSDGNTYLNWYLQKPGQSPQLLIYKVSNRFSGVPDRFSGSGSGTDFTLKISRVEAEDVGVYFCSQSTHVPWTFGGGTKVEIK	0 (no)
HT11: humanized cis-pThr231-tau mAb; heavy chain variable domain SEQ ID NO: 27, light chain variable domain SEQ ID NO: 19 (antibody, V domains shown) VH: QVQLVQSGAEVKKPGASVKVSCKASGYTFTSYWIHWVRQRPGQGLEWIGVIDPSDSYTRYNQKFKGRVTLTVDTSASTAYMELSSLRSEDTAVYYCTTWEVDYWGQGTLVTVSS VL: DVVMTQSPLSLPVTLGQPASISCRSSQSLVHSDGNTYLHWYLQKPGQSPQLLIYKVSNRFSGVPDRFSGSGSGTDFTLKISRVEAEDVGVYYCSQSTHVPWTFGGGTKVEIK	1 (yes)

Query :: Identify whether the reported pKd of the following molecule is 8 or greater: HT13: mouse-human chimera control antibody; heavy chain variable domain SEQ ID NO: 24, light chain variable domain SEQ ID NO: 15 (antibody, V domains shown) VH: QVQLQQPGAELVKPGASVKMSCKASGYTFTSYWIHWVKQRPGQGLEWIGVIDPSDSYTRYNQKFKGKATLTVDTSSSTAYMQLSSLTSEDSAVYYCTTWEVDYWGQGTTLTVSS VL: DVVMTQTPLSLPVSLGDQASISCRSSQSLVHSDGNTYLHWYLQKPGQSPKLLIYKVSNRFSGVPDRFSGSGSGTDFTLKISRLEAEDLGVYFCSQSTHVPWTFGGGTKLEIK
Result :: 1 (yes)
